# Test system: CaMKII
# experiment.description: CaMKII inhibitory potency against a synthetic CaMKII substrate
# Assay type: biochemical
# study.conditions: 'previous studies'
pIC50: −log10 of the molar value.
readout: pIC50

1) KKALHRQEAVDCL [AC3-I] :: 6.30
